- Test system: mice
- Measurement protocol: SmartCube in vivo neuropharmacological behavioral assay
- Measurement context: SmartCube, i.p. 15 min before test, at the MED
Counter-ions that a name gives are not always drawn.
Metric: AG: analgesic, percent probability

c1ccc2c(c1)C1CCC2N1C1CC1 [Compound 45, hydrochloride] : ++ (5% ≤ X < 25%)
CC1CC2c3ccccc3C1N2C(C)C (centres unmarked) [Compound 51, hydrochloride] : + (LOQ ≤ X < 5%)
C1=CC2NC1c1ccccc12 [Compound 52, hydrochloride] : + (LOQ ≤ X < 5%)
COCC(C)N1C2CCC1c1ccccc12 (centres unmarked) [Compound 46, hydrochloride] : ++ (5% ≤ X < 25%)
CC1=C(C)C2NC1c1ccccc12 [Compound 59, hydrochloride] : + (LOQ ≤ X < 5%)
c1ccc2c(c1)C1CCC2N1C1CCCC1 [Compound 43, hydrochloride] : + (LOQ ≤ X < 5%)

Ask | Consider the compound CC1CC2NC1c1ccccc12 (centres unmarked) [Compound 50, hydrochloride] and give its measured AG: analgesic, percent probability.
Reply | ++ (5% ≤ X < 25%)

Ask | Consider the compound CC(C)C(C)N1C2C=CC1c1ccccc12 (centres unmarked) [Compound 58, hydrochloride] and give its measured AG: analgesic, percent probability.
Reply | + (LOQ ≤ X < 5%)

----------
- System: mice
- Measurement protocol: SmartCube in vivo neuropharmacological behavioral assay
- Measurement context: SmartCube, i.p. 15 min before test, at the MED
- Protocol: The compounds were evaluated for their CNS related properties (e.g., the treatment, prevention or diagnosis of CNS or CNS-related disorders and/or amelioration of symptoms) using neuropharmacological screening methods described in S. L. Roberts et al., Front. Neurosci. 2011, 5:103 (hereinafter referred to as “Roberts,” the contents of which are incorporated herein by reference in their entirety). […] According to the present disclosure, compounds identified may be evaluated using the SmartCube® system. […]
Counter-ions that a name gives are not always drawn.
Metric: UN: uncharacterized CNS activity, percent probability

Solved cases below.
COc1ccc2c(c1)C1CCC2N1C(C)C (centres unmarked) [Compound 35] : ++ (5% ≤ X < 25%)
CC(C)C(C)N1C2C=CC1c1ccccc12 (centres unmarked) [Compound 58, hydrochloride] : + (LOQ ≤ X < 5%)
CC(C)C(C)N1C2CCC1c1ccccc12 (centres unmarked) [Compound 47, hydrochloride] : ++ (5% ≤ X < 25%)
c1ccc2c(c1)C1CCC2N1C1CCCC1 [Compound 43, hydrochloride] : ++ (5% ≤ X < 25%)
CC(C)N1C2CCC1c1ccccc12 [Compound 42, hydrochloride] : ++ (5% ≤ X < 25%)

Ask | Consider the compound CC(C)N1C2CCC1c1cc(Cl)ccc12 (centres unmarked) [Compound 28, hydrochloride] and give its measured UN: uncharacterized CNS activity, percent probability.
Reply | ++ (5% ≤ X < 25%)

Ask | Consider the compound COc1cccc2c1C1CCC2N1C(C)C (centres unmarked) [Compound 18, hydrochloride] and give its measured UN: uncharacterized CNS activity, percent probability.
Reply | + (LOQ ≤ X < 5%)

----------
- System: mice
- Measurement protocol: SmartCube in vivo neuropharmacological behavioral assay
- Measurement context: SmartCube, i.p. 15 min before test, at the MED
Counter-ions that a name gives are not always drawn.
Metric: AG: analgesic, percent probability

CC[C@@H](C)N1C2CCC1c1ccccc12 [Compound 33, hydrochloride] : + (LOQ ≤ X < 5%)
CC1=C(C)C2c3ccccc3C1N2C(C)C [Compound 60, hydrochloride] : ++ (5% ≤ X < 25%)
CC(C)N1C2CCC1c1cc(F)c(F)cc12 [Compound 8, hydrochloride] : ++ (5% ≤ X < 25%)
Clc1cccc2c1C1C=CC2N1 (centres unmarked) [Compound 11, hydrochloride] : + (LOQ ≤ X < 5%)
CC(C)N1C2CCC1c1c(Cl)cccc12 (centres unmarked) [Compound 14, hydrochloride] : ++ (5% ≤ X < 25%)

Ask | Consider the compound CC(C)N1C2CCC1c1cc(Cl)ccc12 (centres unmarked) [Compound 28, hydrochloride] and give its measured AG: analgesic, percent probability.
Reply | + (LOQ ≤ X < 5%)

Ask | Consider the compound CC1=CC2c3ccccc3C1N2C(C)C (centres unmarked) [Compound 62, hydrochloride] and give its measured AG: analgesic, percent probability.
Reply | ++ (5% ≤ X < 25%)

Ask | Consider the compound CC(C)N1C2CCC1c1ccccc12 [Compound 42, hydrochloride] and give its measured AG: analgesic, percent probability.
Reply | ++ (5% ≤ X < 25%)

Ask | Consider the compound C1=CC2c3ccccc3C1N2C1CCCC1 [Compound 54, hydrochloride] and give its measured AG: analgesic, percent probability.
Reply | ++ (5% ≤ X < 25%)

Ask | Consider the compound COc1ccc2c(c1)C1CCC2N1C(C)C (centres unmarked) [Compound 35] and give its measured AG: analgesic, percent probability.
Reply | + (LOQ ≤ X < 5%)

Ask | Consider the compound Clc1cccc2c1C1CCC2N1 (centres unmarked) [Compound 13, hydrochloride] and give its measured AG: analgesic, percent probability.
Reply | + (LOQ ≤ X < 5%)

Ask | Consider the compound CCC(C)N1C2C=CC1c1ccccc12 (centres unmarked) [Compound 55, hydrochloride] and give its measured AG: analgesic, percent probability.
Reply | + (LOQ ≤ X < 5%)

Ask | Consider the compound COc1cccc2c1C1C=CC2N1 (centres unmarked) [Compound 16, hydrochloride] and give its measured AG: analgesic, percent probability.
Reply | + (LOQ ≤ X < 5%)

Ask | Consider the compound CC1=CC2NC1c1ccccc12 (centres unmarked) [Compound 61, hydrochloride] and give its measured AG: analgesic, percent probability.
Reply | ++ (5% ≤ X < 25%)

Ask | Consider the compound CC(C)N1C2C=CC1c1ccccc12 [Compound 53, hydrochloride] and give its measured AG: analgesic, percent probability.
Reply | ++ (5% ≤ X < 25%)

Ask | Consider the compound COCC(C)N1C2C=CC1c1ccccc12 (centres unmarked) [Compound 57, hydrochloride] and give its measured AG: analgesic, percent probability.
Reply | + (LOQ ≤ X < 5%)

Ask | Consider the compound COc1cccc2c1C1CCC2N1C(C)C (centres unmarked) [Compound 18, hydrochloride] and give its measured AG: analgesic, percent probability.
Reply | + (LOQ ≤ X < 5%)

Ask | Consider the compound Cc1cccc2c1C1CCC2N1C(C)C (centres unmarked) [Compound 31, hydrochloride] and give its measured AG: analgesic, percent probability.
Reply | ++ (5% ≤ X < 25%)

Ask | Consider the compound C1=CC2c3ccccc3C1N2C1CC1 [Compound 56, hydrochloride] and give its measured AG: analgesic, percent probability.
Reply | + (LOQ ≤ X < 5%)

----------
- System: mice
- Measurement protocol: SmartCube in vivo neuropharmacological behavioral assay
- Measurement context: SmartCube, i.p. 15 min before test, at the MED
Counter-ions that a name gives are not always drawn.
Metric: UN: uncharacterized CNS activity, percent probability

Solved cases below.
CC(C)N1C2C=CC1c1c(Cl)cccc12 (stereo not drawn) [Compound 12, hydrochloride] : + (LOQ ≤ X < 5%)
CC1CC2c3ccccc3C1N2C(C)C (stereo not drawn) [Compound 51, hydrochloride] : + (LOQ ≤ X < 5%)
CCC(C)N1C2CCC1c1ccccc12 (stereo not drawn) [Compound 44, hydrochloride] : + (LOQ ≤ X < 5%)
CC(C)N1C2CCC1c1c(Cl)cccc12 (stereo not drawn) [Compound 14, hydrochloride] : + (LOQ ≤ X < 5%)
Cc1ccc2c(c1)C1CCC2N1C(C)C (stereo not drawn) [Compound 21, hydrochloride] : ++ (5% ≤ X < 25%)
c1ccc2c(c1)C1CCC2N1C1CC1 [Compound 45, hydrochloride] : ++ (5% ≤ X < 25%)
CC(C)N1C2CCC1c1cc(F)c(F)cc12 [Compound 8, hydrochloride] : + (LOQ ≤ X < 5%)
COCC(C)N1C2CCC1c1ccccc12 (stereo not drawn) [Compound 46, hydrochloride] : + (LOQ ≤ X < 5%)

Ask | Consider the molecule CC1=C(C)C2c3ccccc3C1N2C(C)C [Compound 60, hydrochloride] and give its measured UN: uncharacterized CNS activity, percent probability.
Reply | + (LOQ ≤ X < 5%)

----------
- Test system: mice
- Measurement protocol: SmartCube in vivo neuropharmacological behavioral assay
- Measurement context: SmartCube, i.p. 15 min before test, at the MED
- Protocol: The compounds were evaluated for their CNS related properties (e.g., the treatment, prevention or diagnosis of CNS or CNS-related disorders and/or amelioration of symptoms) using neuropharmacological screening methods described in S. L. Roberts et al., Front. Neurosci. 2011, 5:103 (hereinafter referred to as “Roberts,” the contents of which are incorporated herein by reference in their entirety). […] According to the present disclosure, compounds identified may be evaluated using the SmartCube® system. […]
Structures can show the parent of a compound that is named as a salt.
Metric: UN: uncharacterized CNS activity, percent probability

CC1=C(C)C2NC1c1ccccc12 [Compound 59, hydrochloride] : + (LOQ ≤ X < 5%)
CC1=CC2c3ccccc3C1N2C(C)C (centres unmarked) [Compound 62, hydrochloride] : ++ (5% ≤ X < 25%)
Cc1cccc2c1C1CCC2N1C(C)C (centres unmarked) [Compound 31, hydrochloride] : +++ (25% ≤ X < 50%)
CC(C)N1C2C=CC1c1cc(F)c(F)cc12 [Compound 6, hydrochloride] : + (LOQ ≤ X < 5%)
Clc1cccc2c1C1C=CC2N1 (centres unmarked) [Compound 11, hydrochloride] : ++ (5% ≤ X < 25%)

Ask | Give mice UN: uncharacterized CNS activity, percent probability for CC(C)N1C2C=CC1c1ccccc12 [Compound 53, hydrochloride]
Reply | ++ (5% ≤ X < 25%)

Ask | Give mice UN: uncharacterized CNS activity, percent probability for CC/C=C/CN1C2CCC1c1ccccc12 [Compound 10, hydrochloride]
Reply | + (LOQ ≤ X < 5%)

Ask | Give mice UN: uncharacterized CNS activity, percent probability for COc1cccc2c1C1C=CC2N1 (centres unmarked) [Compound 16, hydrochloride]
Reply | ++ (5% ≤ X < 25%)

Ask | Give mice UN: uncharacterized CNS activity, percent probability for C1=CC2c3ccccc3C1N2C1CC1 [Compound 56, hydrochloride]
Reply | +++ (25% ≤ X < 50%)

Where these numbers come from: patent US20230109801A1
